In this section we review reported pKd values for a set of binders.
molecular target: NHERF2_2, Q15599; experiment: holdup assay; design: key: below the threshold = too weak to quantify, mostly under pKd 3.1 to 4; details: plain residues with an end cap or a label only (N-terminal biotin on a linker: ado-ado)
Sequence (Q15599 142-238): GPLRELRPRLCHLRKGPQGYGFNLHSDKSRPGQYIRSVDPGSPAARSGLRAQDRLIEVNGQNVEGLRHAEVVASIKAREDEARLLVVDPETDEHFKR
// no unit string in output, number only

Example entries and their recorded answers appear below.
>  <BINDER>
GFGEERESIL [KIDINS220, Q9ULH0]

>  <READOUT>
pKd

>  <EXPERIMENTAL_RESULT>
4.67

$$$$
>  <BINDER>
EEPEERHTEL [CES2, O00748]

>  <READOUT>
pKd

>  <EXPERIMENTAL_RESULT>
4.63

$$$$

Inquiry: Entry under review: TETASVCTKV [SLC23A1, Q9UHI7] . Reported pKd?
Reply text: 4.16
